Reference source: patent US20230295201A1

system: RSV strain A2; test: RSV HEp-2 EC50 (infectious cytopathic cell protection assay); assay type: cell-based; details: human respiratory syncytial virus, HEp-2, 96 h, HEp-2 cells, RSV A2, 4 days; read-out: RSV HEp-2 EC50
Catalogue of EC50 values
Please answer using the number first and the unit second.

Use the examples below as a reference point.
compound: C[C@H](N[P@@](=O)(OC[C@@]1(C#N)O[C@@H](c2ccc3c(N)ncnn23)[C@H](O)[C@@H]1O)Oc1ccccc1)C(=O)O[C@H]1CC[C@H](C(C)(C)C)CC1 (single isomer, unassigned)
observed-measurement: 207 nM

compound: CC(C)[C@H](N)C(=O)OCCNP(=O)(OC[C@@]1(C#N)O[C@@H](c2ccc3c(N)ncnn23)[C@H](O)[C@@H]1O)Oc1ccccc1 (some centres unmarked)
observed-measurement: 315 nM

compound: CCOCCOCCOC(=O)[C@H](C)NP(=O)(OC[C@@]1(C#N)O[C@@H](c2ccc3c(N)ncnn23)[C@H](O)[C@@H]1O)Oc1ccccc1 (single isomer, unassigned)
observed-measurement: 1260 nM

compound: C[C@@H](NP(=O)(OC[C@@]1(C#N)O[C@@H](c2ccc3c(N)ncnn23)[C@H](O)[C@@H]1O)Oc1ccccc1)C(=O)O[C@H]1CC[C@H](C(F)(F)F)CC1 (single isomer, unassigned)
observed-measurement: 2590 nM

Report measured EC50; entry is CCCCCCCCCCCCCCCCOCCCOC(=O)[C@H](C)NP(=O)(OC[C@@]1(C#N)O[C@@H](c2ccc3c(N)ncnn23)[C@H](O)[C@@H]1O)Oc1ccccc1 (some centres unmarked)
618 nM

----------
Reported EC50 by item:
tested on: HRV16; experiment: HRV16 HELA EC50 (cytopathic effect in H1-HeLa cells); type: cell-based; details: 96 h, H1-HeLa cells, 33° C., read-out: HRV16 HELA EC50
Numeric only. Scale: nM

// fetch EC50 for COC(C)(C)COC(=O)[C@H](C)NP(=O)(OC[C@@]1(C#N)O[C@@H](c2ccc3c(N)ncnn23)[C@H](O)[C@@H]1O)Oc1ccccc1 (some centres unmarked) ; system: HRV16
4000

----------
system: HRV1a; test: HRV1A HELA EC50 (cytopathic effect in H1-HeLa cells); format: cell-based; details: 96 h, read-out: HRV1A HELA EC50
Examples of compounds with documented EC50 follow.
Give the value in nM but do not write nM after it.

Check out these entries, answers already filled in.
compound: CCC(CC)COC(=O)[C@@H](C)NP(=O)(OC[C@@]1(C#N)O[C@@H](c2ccc3c(N)ncnn23)[C@H](O)[C@@H]1O)Oc1ccccc1 (stereo partly drawn)
EC50, nM: 2780
//
compound: C[C@H](NP(=O)(OC[C@@]1(C#N)O[C@@H](c2ccc3c(N)ncnn23)[C@H](O)[C@@H]1O)Oc1ccccc1)C(=O)OCC(C)(C)C (stereo partly drawn)
EC50, nM: 97
//
compound: CC(C)OC(=O)[C@H](C)NP(=O)(OC[C@@]1(C#N)O[C@@H](c2ccc3c(N)ncnn23)[C@H](O)[C@@H]1O)Oc1ccccc1 (mixture of isomers)
EC50, nM: 736
//
compound: CCC(CC)OC(=O)[C@H](C)NP(=O)(OC[C@@]1(C#N)O[C@@H](c2ccc3c(N)ncnn23)[C@H](O)[C@@H]1O)Oc1ccccc1 (stereo partly drawn)
EC50, nM: 1630

Please list EC50 recorded for the compound C[C@H](NP(=O)(OC[C@@]1(C#N)O[C@@H](c2ccc3c(N)ncnn23)[C@H](O)[C@@H]1O)Oc1ccccc1)C(=O)OCC1CCC1 (mixture of isomers)
106

Kindly indicate its recorded EC50. Item: C[C@H](NP(=O)(OC[C@@]1(C#N)O[C@@H](c2ccc3c(N)ncnn23)[C@H](O)[C@@H]1O)Oc1ccccc1)C(=O)OC1CCCCC1 (stereo partly drawn)
190

----------
pEC50 values by entry
tested on: HRV16; experiment: HRV16 HELA EC50 (cytopathic effect in H1-HeLa cells); assay type: cell-based; details: 96 h, H1-HeLa cells, 33° C., read-out: HRV16 HELA EC50
Remember, pEC50 is on a log scale: it is -log10 of the molar concentration.

compound: CCCCCCCCCCCCCCCCOCCCOC(=O)[C@H](C)NP(=O)(OC[C@@]1(C#N)O[C@@H](c2ccc3c(N)ncnn23)[C@H](O)[C@@H]1O)Oc1ccccc1 (some centres unmarked)
assay-target: HRV16
pEC50: 6.26
//
compound: C[C@H](NP(=O)(OC[C@@]1(C#N)O[C@@H](c2ccc3c(N)ncnn23)[C@H](O)[C@@H]1O)Oc1ccccc1)C(=O)O[C@H]1CC[C@H](c2ccccc2)CC1 (some centres unmarked)
assay-target: HRV16
pEC50: 5.32
//
compound: CCC(CC)OC(=O)[C@H](CC)NP(=O)(OC[C@@]1(C#N)O[C@@H](c2ccc3c(N)ncnn23)[C@H](O)[C@@H]1O)Oc1ccccc1 (mixture of isomers)
assay-target: HRV16
pEC50: 4.99

Specify measured pEC50 for `COC(=O)[C@H](C)N[P@](=O)(OC[C@@]1(C#N)O[C@@H](c2ccc3c(N)ncnn23)[C@H](O)[C@@H]1O)Oc1ccccc1` .
5.90

Quote pEC50 reported for C[C@H](NP(=O)(OC[C@@]1(C#N)O[C@@H](c2ccc3c(N)ncnn23)[C@H](O)[C@@H]1O)Oc1ccccc1)C(=O)OCC1CC1 (mixture of isomers) please.
6.33

Dear colleague, please send me the reported pEC50 for C[C@H](NP(=O)(OC[C@@]1(C#N)O[C@@H](c2ccc3c(N)ncnn23)[C@H](O)[C@@H]1O)Oc1ccccc1)C(=O)OC1CCCCCCC1 (some centres unmarked) when you can.
6.24

In one line, give reported pEC50 of the entry CC(C)OC(=O)[C@H](C)N[P@@](=O)(OC[C@@]1(C#N)O[C@@H](c2ccc3c(N)ncnn23)[C@H](O)[C@@H]1O)Oc1ccccc1 (single isomer, unassigned) .
5.65

Retrieve pEC50 measured for CC[C@H](NP(=O)(OC[C@@]1(C#N)O[C@@H](c2ccc3c(N)ncnn23)[C@H](O)[C@@H]1O)Oc1ccccc1)C(=O)OC(C)C (some centres unmarked) and print it.
5.17

----------
tested on: HRV16; test: HRV16 HELA EC50 (cytopathic effect in H1-HeLa cells); type: cell-based; conditions: 96 h, H1-HeLa cells, 33° C., read-out: HRV16 HELA EC50
measured-quantity: EC50 (nM)
// note: answer is a bare numeric in nM

Worked cases, answers included:
molecule: CCCCCCCCOC(=O)[C@H](C)NP(=O)(OC[C@@]1(C#N)O[C@@H](c2ccc3c(N)ncnn23)[C@H](O)[C@@H]1O)Oc1ccccc1 (stereo partly drawn)
assay-target: HRV16
observed-measurement: 429
//
molecule: C[C@H](NP(=O)(OC[C@@]1(C#N)O[C@@H](c2ccc3c(N)ncnn23)[C@H](O)[C@@H]1O)Oc1ccccc1)C(=O)OC1CCC(F)(F)CC1 (mixture of isomers) [Example 174]
assay-target: HRV16
observed-measurement: 748

State its EC50 for this molecule: CCOC(=O)[C@H](Cc1ccccc1)NP(=O)(OC[C@@]1(C#N)O[C@@H](c2ccc3c(N)ncnn23)[C@H](O)[C@@H]1O)Oc1ccccc1 (stereo partly drawn)
8960

For CC[C@H](NP(=O)(OC[C@@]1(C#N)O[C@@H](c2ccc3c(N)ncnn23)[C@H](O)[C@@H]1O)Oc1ccccc1)C(=O)OC1CCCC1 (single isomer, unassigned) [Example 111] , write its EC50.
25300

Tell me measured EC50 for CC(C)OC(=O)[C@H](C)N[P@](=O)(OC[C@@]1(C#N)O[C@@H](c2ccc3c(N)ncnn23)[C@H](O)[C@@H]1OC(=O)C(C)(C)C)Oc1ccccc1 (single isomer, unassigned) please.
1120

Provide measured EC50 value, entry: `CC(C)OC(=O)[C@H](C)N[P@](=O)(OC[C@@]1(C#N)O[C@@H](c2ccc3c(N)ncnn23)[C@@H]2OC(=O)O[C@@H]21)Oc1ccccc1`
741

Answer with the recorded EC50 of C[C@H](NP(=O)(OC[C@@]1(C#N)O[C@@H](c2ccc3c(N)ncnn23)[C@H](O)[C@@H]1O)Oc1ccccc1)C(=O)OCC1CCCCC1 (single isomer, unassigned) only.
317

Tell me its EC50 given CC(C)OC(=O)[C@H](C)N[P@](=O)(OC[C@@]1(C#N)O[C@@H](c2ccc3c(N)ncnn23)[C@H](O)[C@@H]1O)Oc1ccccc1 (single isomer, unassigned) as the entry.
966

Respond only with EC50 recorded for C[C@H](NP(=O)(OC[C@@]1(C#N)O[C@@H](c2ccc3c(N)ncnn23)[C@H](O)[C@@H]1O)Oc1ccccc1)C(=O)OC1CCOCC1 (stereo partly drawn) [Example 55]
6910

Identify measured EC50 associated with CC[C@H](NP(=O)(OC[C@@]1(C#N)O[C@@H](c2ccc3c(N)ncnn23)[C@H](O)[C@@H]1O)Oc1ccccc1)C(=O)OC1CCCC1 (stereo partly drawn) [Example 109]
2490
